# PROTOCOL SUMMARY: chemical genetic growth profiling, strain panel (AID 1159580);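 note: tested at 20 µM; growth read once vehicle control cultures reached saturation at 30 °C; 1 = growth at the plate median or of vehicle wells; lower values mean less growth of the strain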
# SETTINGS: S. cerevisiae deletion strains, growth OD, locus YLR330W, strain CHS5, active compounds read low
Among all 5,500 compounds or so, about 2,000 (36%) were called active. Not shown: some 18% with an inconclusive outcome. Some of the results follow.
READOUT LABEL: normalized growth

Solved entries:
{"columns": ["COMPOUND", "RECORDED MEASUREMENT"],
 "data": [
  ["Cc1c(C)c2c(c(C)c1O)CCC(C)(CCCC(C)CCCC(C)CCCC(C)C)O2 (stereo not given)", "1 (inactive)"],
  ["C=C(C)C1(O)OC(=O)C=C1OC (stereo not given)", "0.992 (inactive)"],
  ["CC(C)c1ccc2c(c1)CCC1C(C)(C(N)=O)CCCC21C (stereo not given)", "0.909 (active)"],
  ["COC(=O)c1c(OC)cc2c(c1C)Oc1c(Cl)c(O)c(Cl)c(C)c1C(=O)O2", "0.929 (inactive)"]
]}

Shift focus to the following entry.
Exam item: Supply reported normalized growth belonging to this compound: CC(C)=CC1C(C(=O)O)C1(C)C (stereo not given)
Marked response: 0.984 (inactive)

###

# PROTOCOL SUMMARY: chemical genetic growth profiling, strain panel (AID 1159580);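 note: tested at 20 µM; growth read once vehicle control cultures reached saturation at 30 °C; 1 = growth at the plate median or of vehicle wells; lower values mean less growth of the strain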
# SETTINGS: S. cerevisiae deletion strains, growth OD, locus YGL173C, strain kem1, active compounds read low
Among all 5,500 compounds or so, about 2,000 (36%) were called active. Inconclusive results (about 18%) are left out. This is one part of the list.
READOUT LABEL: normalized growth
// no unit string in output, number only

{"columns": ["MOLECULE", "normalized growth"],
 "data": [
  ["CS(=O)(=O)c1ccc([C@@H](O)[C@@H](CO)NC(=O)C(Cl)Cl)cc1", 1.02],
  ["NC(Cn1ccc(=O)c(O)c1)C(=O)O (centres undefined)", 1],
  ["CC1(C)CC2C1CC[C@]1(C)CCC3C(C(=O)O)CC(=O)O[C@@]32C1 (some centres undefined)", 1.03]
]}

Shift focus to the following entry.
Exam item: Supply reported normalized growth belonging to this molecule: CC12CCC(=O)C=C1CCC1C2[C@@H](O)CC2(C)C1CC[C@]2(O)C(=O)COP(=O)(O)O (some centres undefined)
Marked response: 0.995

###

# PROTOCOL SUMMARY: chemical genetic growth profiling, strain panel (AID 1159580);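 note: tested at 20 µM; growth read once vehicle control cultures reached saturation at 30 °C; 1 = growth at the plate median or of vehicle wells; lower values mean less growth of the strain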
# SETTINGS: S. cerevisiae deletion strains, growth OD, locus YER016W, strain bim1, active compounds read low
About 2,000 (36%) of roughly 5,500 compounds were called active. Not shown: some 18% with an inconclusive outcome. This is one part of the list.
Measured normalized growth, listed per entry.
// no unit string in output, number only

{"columns": ["COMPOUND", "RECORDED MEASUREMENT"],
 "data": [
  ["O=C(O)c1cc(O)c2c(c1)[C@@H]([C@H]1c3cc(C(=O)O)cc(O)c3C(=O)c3c(O[C@H]4O[C@H](CO)[C@@H](O)[C@H](O)[C@H]4O)cccc31)c1cccc(O[C@H]3O[C@H](CO)[C@@H](O)[C@H](O)[C@H]3O)c1C2=O", 1.02]
]}

Shift focus to the following entry.
Exam item: Supply reported normalized growth belonging to this compound: `CC(=O)Oc1ccc(C(c2ccc(OC(C)=O)cc2)c2ccccn2)cc1`
Marked response: 1.03

This collection of values is drawn from PubChem BioAssay AID1159580.
